The reported measurements were obtained from ChEMBL document CHEMBL4513216.

Measured INHIBITION of individual entries
Tested on: Plasmodium berghei
Assay: Screen against P. berghei liver stage (PbLuc), transformed with Luciferase, at 2uM
Format: functional, HepG2
Settings: tested at 2 uM
Among all 68,000 compounds or so, about 2,700 (4%) showed an effect of 50% or more. What follows is part of a selection rich in strong results, with near analogues and random picks from the rest.
Note: unit % is implicit; provide only the numeric part.

These recorded examples may help you get a feel for the data.
| compound | result-units | INHIBITION |
| --- | --- | --- |
| CC(CNC(=O)NCc1ccsc1)CC1(C)OCCO1 (configuration not stated) | % | -35.5 |
| CN(CCc1ccccc1)C(=O)c1cc(CN2CCC(O)CC2)on1 | % | -10.41 |
| CN(Cc1ccco1)Cc1cnc2n1CCN(c1ncccn1)CC2 | % | -6.14 |
| O=C(Nc1nnn[nH]1)c1ccc(I)c(F)c1 | % | 15.2 |
| Cc1cnc(C(=O)N2CCCC(n3cncn3)C2)cn1 (configuration not stated) | % | -43.79 |
| COc1ccccc1C(C)(C)NC(=O)Nc1ccc(F)c(C(N)=O)c1 | % | 20.21 |
| CC1(CCNC(=O)NCc2ccsc2)OCCO1 | % | 57.23 |
| CCN(C)C[C@@H]1CN(S(=O)(=O)c2cccc(Cl)c2)C[C@@H]1CO | % | 55.36 |

Prompt: Which INHIBITION is reported for this compound? CN(CCc1ccccc1)Cc1cc(C(=O)N2CCCC2(C)C)no1
Response: 61.89

Prompt: Another compound to look at: CCN(C)C[C@@H]1CN(S(=O)(=O)c2ccc(OC)cc2)C[C@@H]1CO
Response: 76.82

Prompt: Another compound to look at: c1ccc([C@@H]2CN(Cc3ccncc3)C[C@H]2c2cc[nH]n2)cc1
Response: 48.22

Prompt: Another compound to look at: CCC1CN(C(=O)c2cc(CN(C)CCc3ccccc3)on2)CCO1 (configuration not stated)
Response: -11.41

Prompt: Another compound to look at: CC(C1CC1)N(CC(=O)NC(=O)NC1CC1)C1CC1 (configuration not stated)
Response: 31.39

Prompt: Another compound to look at: CN(CCc1ccccc1)Cc1cc(C(=O)N2CCN(C)C(=O)C2)no1
Response: -64.43

Prompt: Another compound to look at: c1ccc([C@@H]2CN(Cc3cccnc3)C[C@H]2c2cc[nH]n2)cc1
Response: 50.94

Prompt: Another compound to look at: CC(NC(=O)c1ccoc1)C(=O)N(C)Cc1ccsc1 (configuration not stated)
Response: -56.89

Prompt: Another compound to look at: COCCn1ccnc1C1CCCN(C(=O)CSc2nnc(C)o2)C1 (configuration not stated)
Response: -7.17

* * *

Tested on: Plasmodium berghei
Assay: Screen against P. berghei liver stage (PbLuc), transformed with Luciferase, at 2uM
Format: functional, HepG2
Conditions: tested at 2 uM
The campaign covered roughly 68,000 compounds. About 2,700 (4%) showed an effect of 50% or more. Many of the other results were omitted from the sample, so strong results are more common in it than they were.
property-label: INHIBITION (%)
Note: unit % is implicit; provide only the numeric part.

These recorded examples may help you get a feel for the data.
| molecule | INHIBITION / % |
| --- | --- |
| CN(C)c1ccc(C(CNS(=O)(=O)c2cccs2)N2CCCC2)cc1 (configuration not stated) | 14.19 |
| Cc1nc(N2CCN(C)CC2)ncc1C(=O)N1CCCCCC1 | -15.75 |

Prompt: Query for Plasmodium berghei: what INHIBITION does the record show for Cc1csc(CNC(=O)NCC(O)c2ccc(F)cc2F)n1 (configuration not stated) ?
Response: -41.67

Prompt: Another molecule to look at: CO[C@H]1CN(C(=O)c2cccc(C)n2)CC[C@@]12CCCO2
Response: 19.91

Prompt: Another molecule to look at: Cc1ccc(OC(C)CNC(=O)c2c[nH]nn2)cc1 (configuration not stated)
Response: -9.5

Prompt: Another molecule to look at: CCOC(=O)c1cnn(-c2cc(Oc3cccc(C)c3)ncn2)c1N
Response: -58.53

Prompt: Another molecule to look at: CC(C)(Oc1ccc2c(c1)CCCC2=O)C(=O)NCc1ccco1
Response: 15.88

Prompt: Another molecule to look at: CCCc1nc(C)cc(NCc2ccc(S(N)(=O)=O)cc2)n1
Response: -16

Prompt: Another molecule to look at: Cc1c(C(=O)NCCCS(C)(=O)=O)cccc1-c1ccccn1
Response: 3.63

Prompt: Another molecule to look at: CC(CNC(=O)c1c[nH]nn1)Oc1cccc(Br)c1 (configuration not stated)
Response: -10.85

Prompt: Another molecule to look at: CC(C)(Oc1ccc(F)cc1)C(=O)NCc1ccco1
Response: 58.14

Prompt: Another molecule to look at: O=C(NCC(O)(c1cccs1)C1CC1)NC1CCCCC1 (configuration not stated)
Response: -11.54

Prompt: Another molecule to look at: CC(C)(C)Oc1ccc(NCC(=O)NCc2ccco2)cc1
Response: -62.92

Prompt: Another molecule to look at: CCN(CCO)C[C@@H]1CN(c2nc(C)cc(C)n2)C[C@@H]1CO
Response: 5.88

Prompt: Another molecule to look at: c1cc2nccc(CC3CCCN(C4CCOCC4)CC3)c2cn1 (configuration not stated)
Response: 24.56

Prompt: Another molecule to look at: CC(C)C(C(=O)N1CCCN(c2nccs2)CC1)n1cncn1 (configuration not stated)
Response: 15.47
